The reader will find reported Ki values listed item by item below.
# assayed-target: human PDE2A1 (Homo sapiens (Human), UniProt O00408)
# Sequence (O00408 other isoform, or with tags, fused parts or gaps): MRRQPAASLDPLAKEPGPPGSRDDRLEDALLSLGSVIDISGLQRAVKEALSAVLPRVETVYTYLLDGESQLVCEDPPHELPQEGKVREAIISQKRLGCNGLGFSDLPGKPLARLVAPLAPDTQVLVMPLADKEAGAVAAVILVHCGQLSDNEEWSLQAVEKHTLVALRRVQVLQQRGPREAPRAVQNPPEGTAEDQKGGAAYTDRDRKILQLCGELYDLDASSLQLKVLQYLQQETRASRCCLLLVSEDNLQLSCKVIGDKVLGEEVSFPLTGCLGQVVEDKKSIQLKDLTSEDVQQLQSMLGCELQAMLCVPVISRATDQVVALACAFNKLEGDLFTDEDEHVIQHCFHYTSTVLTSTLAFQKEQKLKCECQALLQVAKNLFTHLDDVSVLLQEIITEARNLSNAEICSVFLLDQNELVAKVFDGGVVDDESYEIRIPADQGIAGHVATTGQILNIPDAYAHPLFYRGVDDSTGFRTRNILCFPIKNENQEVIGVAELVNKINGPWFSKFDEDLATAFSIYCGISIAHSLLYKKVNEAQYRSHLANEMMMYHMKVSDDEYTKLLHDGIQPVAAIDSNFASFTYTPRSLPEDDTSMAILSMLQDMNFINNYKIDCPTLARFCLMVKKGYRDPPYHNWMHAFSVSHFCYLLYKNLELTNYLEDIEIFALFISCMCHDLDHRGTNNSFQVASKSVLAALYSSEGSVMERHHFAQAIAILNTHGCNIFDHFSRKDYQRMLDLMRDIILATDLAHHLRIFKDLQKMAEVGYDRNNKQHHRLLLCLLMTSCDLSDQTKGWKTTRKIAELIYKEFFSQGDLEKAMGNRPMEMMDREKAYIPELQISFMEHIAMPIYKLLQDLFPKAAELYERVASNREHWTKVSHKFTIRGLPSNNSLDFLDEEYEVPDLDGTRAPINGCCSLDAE
# method-summary: PDE selectivity IMAP FP assay, human PDE2A1
# Assay type: biochemical
# experimental-setup: Human PDE2; Lab B; read-out: Human PDE2 Ki (nM) Lab B

| molecule | Ki [nM] |
| --- | --- |
| CCC(c1ccc(C(F)(F)F)cc1)n1nc(CO)c2c(=O)[nH]c(N(C)C)nc21 (single isomer, unassigned) [Example 73] | 0.16 |
| CC(c1ccc(C(F)(F)F)c(Cl)c1)n1nc(C(F)(F)F)c2c(=O)[nH]c(O)nc21 (single isomer, unassigned) [Example 328] | 3 |
| CC(c1ccc(C(C)(C)C)cc1)n1nc(CC(F)(F)F)c2c(=O)[nH]c(O)nc21 (single isomer, unassigned) | 3.4 |
| CC(c1ccc(C(C)(C)C)cc1)n1nc(CO)c2c(=O)[nH]c(N(C)C)nc21 (single isomer, unassigned) [Example 67] | 0.25 |
| CC(c1ccc(C(F)(F)F)c(F)c1)n1nc(CO)c2c(=O)[nH]c(N(C)C)nc21 (single isomer, unassigned) [Example 69] | 0.27 |
| CCC(c1ccc(C(F)F)cc1)n1nc(CO)c2c(=O)[nH]c(N(C)C)nc21 (single isomer, unassigned) [Example 93] | 0.42 |
| CC(c1ccc(C(F)(F)F)cc1F)n1nc(CF)c2c(=O)[nH]c(N(C)C)nc21 (single isomer, unassigned) [Example 187] | 19 |
| CCC(c1ccc(C(F)(F)F)cc1)n1nc(CF)c2c(=O)[nH]c(N(C)C)nc21 (single isomer, unassigned) [Example 172] | 2.2 |
| CC(C)c1ccc(C(C2CC2)n2nc(CF)c3c(=O)[nH]c(N(C)C)nc32)cc1 (single isomer, unassigned) | 0.064 |
| CCC(c1ccc(C(C)(F)F)cc1F)n1nc(CF)c2c(=O)[nH]c(N(C)C)nc21 (single isomer, unassigned) [Example 214] | 0.045 |
| CN(C)c1nc2c(c(CO)nn2C(c2ccc(C(F)F)cc2)C2CC2)c(=O)[nH]1 (single isomer, unassigned) [Example 62] | 0.27 |
| CC(C)C(c1ccc(C(F)(F)F)cc1)n1nc(C(F)(F)F)c2c(=O)[nH]c(O)nc21 (single isomer, unassigned) [Example 333] | 134 |
| CC(C)C(c1ccc(OC(F)F)cc1)n1nc(CF)c2c(=O)[nH]c(N(C)C)nc21 (single isomer, unassigned) [Example 185] | 0.12 |
| CN(C)c1nc2c(c(CF)nn2C(c2ccc(C(F)(F)F)cc2F)C2CC2)c(=O)[nH]1 (single isomer, unassigned) [Example 202] | 0.042 |
| CCC(c1ccc(C(F)(F)F)cc1)n1nc(C(F)(F)F)c2c(=O)[nH]c(O)nc21 (single isomer, unassigned) [Example 331] | 346 |
| CCC(c1ccc(OC(F)F)c(F)c1)n1nc(CF)c2c(=O)[nH]c(N(C)C)nc21 (single isomer, unassigned) [Example 341] | 0.15 |
| CC(C)(C)c1ccc(C(C2CC2)n2nc(CC(F)(F)F)c3c(=O)[nH]c(O)nc32)cc1 (single isomer, unassigned) | 27 |
| C[C@@H](c1ccc(C(F)(F)F)cc1)n1nc(CO)c2c(=O)[nH]c(N)nc21 | 12 |
| CN(C)c1nc2c(c(CO)nn2C(c2ccc(C(C)(F)F)cc2F)C2CC2)c(=O)[nH]1 (single isomer, unassigned) [Example 353] | 0.05 |
| CC(c1ccc(C(F)(F)F)c(F)c1)n1nc(C(F)F)c2c(=O)[nH]c(O)nc21 (single isomer, unassigned) | 1.6 |
| CCC(c1ccc(C(F)F)c(F)c1)n1nc(CF)c2c(=O)[nH]c(N(C)C)nc21 (single isomer, unassigned) [Example 345] | 0.13 |
| CC(c1ccc(OC(F)(F)F)cc1)n1nc(CF)c2c(=O)[nH]c(N(C)C)nc21 (single isomer, unassigned) [Example 164] | 1.7 |
| CN(C)c1nc2c(c(CO)nn2C(c2ccc(C(F)(F)F)cc2F)C2CC2)c(=O)[nH]1 (single isomer, unassigned) [Example 135] | 0.6 |
| CCC(c1ccc(C(F)(F)F)cc1F)n1nc(CO)c2c(=O)[nH]c(N(C)C)nc21 (single isomer, unassigned) [Example 131] | 3.9 |
| CC(c1ccc(C(F)(F)C(F)(F)F)cc1)n1nc(CO)c2c(=O)[nH]c(O)nc21 (single isomer, unassigned) [Example 31] | 50 |
